Taken from the RNAGym collection of RNA variant scans (doi:10.7554/elife.90254).

For each record, write down the corresponding self-cleavage.
B1: LINE1-full (parent)
chain: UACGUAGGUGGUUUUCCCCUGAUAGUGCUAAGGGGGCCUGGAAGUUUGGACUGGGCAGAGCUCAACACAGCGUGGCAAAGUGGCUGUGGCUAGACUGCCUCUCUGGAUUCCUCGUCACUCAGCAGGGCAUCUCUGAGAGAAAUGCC

variants of: B1; test: self-cleavage, relative activity (ratio to wild type); higher = more cleavage; in vitro, sequencing; the parent is a self-cleaving ribozyme
Numbers only.

Solved cases (5 shown):
mutationString: U15C U81C
self-cleavage: 1.43
--
mutationString: U20C U100C
self-cleavage: 1.69
--
mutationString: A140G G144A
self-cleavage: 0.92
--
mutationString: U73C C118A
self-cleavage: 1.46
--
mutationString: A64G C118U
self-cleavage: 0.29

# per-item lookup of self-cleavage; items listed below
1. U15A U96A
2. G32U A121U
3. A43G U104A

Response:
1. 0.09
2. 0
3. 0.42
